System: IL-6, IP-10
experiment-summary: Cytokine induction in mice upon intravenous administration
Assay type: in vivo
Set-up: unit not given here
assay-conditions: intravenous, 0.5 mpk, 6 hours
assay-readout: Cytokine induction IL-6
Respond numerically, and do not add a unit to the figure.

compound	obs-value
CCCCCCCCCOC(=O)CCCCCCCN(CCO)CCCCCCC(=O)OCC(CCCCCCCC)CCCCCCCC	6.245

Task item: Query the reported Cytokine induction IL-6 for IL-6, IP-10; item: CCCCCC/C=C\COC(=O)CCCCCCCN(CCO)CCCCCCCC(=O)OC/C=C\CCCCCC
Reply: 23.57

Task item: Provide value of Cytokine induction IL-6 for this record tested with IL-6, IP-10: CCCCCCCCCOC(=O)CCCCCCCN(CCCCO)CCCCCCCC(=O)OC(CCCCCCCC)CCCCCCCC
Reply: 126.83

Task item: Give the reported Cytokine induction IL-6 for CCCCCCCCCOC(=O)CCCCCCCN(CCCCCCCC(=O)OC(CCCCCCCC)CCCCCCCC)C1CCCCC1O (stereo not shown) (system: IL-6, IP-10).
Reply: 90.54

Task item: Give recorded Cytokine induction IL-6 with IL-6, IP-10 for the following compound: CCCCCCCCCOC(=O)CCCCCCCN(CCCCCCCC(=O)OC(CCCCCCCC)CCCCCCCC)CCCOC
Reply: 32.01

Task item: What measured Cytokine induction IL-6 is associated with CCCCCCCCCOC(=O)CCCCCCCN(CCCCCCCC(=O)OC(CCCCCCCC)CCCCCCCC)C[C@H](C)O on IL-6, IP-10?
Reply: 3.88

Task item: Lab note: need Cytokine induction IL-6 with IL-6, IP-10 for entry CCCCCCCCC(CCCCCCCC)OC(=O)CCCCCCCN(CCO)CCCCCCCC(=O)OC(CCCCCCCC)CCCCCCCC , please look it up.
Reply: 69.54
